Data origin, for the record: ChEMBL document CHEMBL1158556

target: UniProtKB P56817; test: Inhibition of human BACE1 at 0.2 uM by FRET assay
Kindly state inhibition for each of the entries shown.
Numbers only, in %.

Past entries and their recorded results:
CC(C)C[C@H](NC(=O)[C@@H](NC(=O)[C@@H](N)CNC(=O)c1cc(O)ccc1O)C(C)C)C(=O)N[C@@H](Cc1ccccc1)[C@@H](O)C(=O)Nc1cccc(-c2n[nH]c(=S)n2C)c1 : 64
CC(C)[C@H](NC(=O)[C@@H](N)CNC(=O)c1nc[nH]n1)C(=O)N[C@@H](CC1CCCCC1)C(=O)N[C@@H](Cc1ccccc1)[C@@H](O)C(=O)Nc1cccc(-c2nn[nH]n2)c1 : 69
CC(C)C[C@H](NC(=O)[C@@H](NC(=O)[C@@H](N)CNC(=O)c1cc(O)ccc1O)C(C)C)C(=O)N[C@@H](Cc1ccccc1)[C@@H](O)C(=O)Nc1cccc(-c2noc(=S)[nH]2)c1 : 93

Proceeding to the next compound to report its inhibition.
Per the records, this compound ( CC(C)C[C@H](NC(=O)[C@@H](NC(=O)[C@@H](N)CNC(=O)c1nc[nH]n1)C(C)C)C(=O)N[C@@H](Cc1ccccc1)[C@@H](O)C(=O)Nc1cccc(-c2nn[nH]n2)c1 ) has inhibition equal to 58

----------
biological target: Beta-secretase 1 (Homo sapiens); experiment: Inhibition of human BACE1 at 2 uM by FRET assay
Sequence (P56817 whole entry): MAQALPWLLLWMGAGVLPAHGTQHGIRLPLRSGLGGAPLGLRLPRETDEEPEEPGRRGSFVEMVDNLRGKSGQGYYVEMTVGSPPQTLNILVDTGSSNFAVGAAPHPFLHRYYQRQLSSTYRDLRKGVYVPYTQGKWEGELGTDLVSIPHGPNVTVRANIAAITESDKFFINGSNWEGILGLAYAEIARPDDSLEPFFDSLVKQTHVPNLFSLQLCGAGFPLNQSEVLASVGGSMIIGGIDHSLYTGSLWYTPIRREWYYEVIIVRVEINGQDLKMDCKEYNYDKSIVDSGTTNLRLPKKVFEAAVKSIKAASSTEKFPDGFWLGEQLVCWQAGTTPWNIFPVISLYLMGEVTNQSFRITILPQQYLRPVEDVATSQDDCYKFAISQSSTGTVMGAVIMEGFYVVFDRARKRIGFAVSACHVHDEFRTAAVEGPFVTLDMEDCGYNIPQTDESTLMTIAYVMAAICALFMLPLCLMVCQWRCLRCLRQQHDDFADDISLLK
Measured metric: inhibition (%)
Give bare numbers, in %.

CC(C)C[C@H](NC(=O)[C@@H](NC(=O)[C@@H](N)CNC(=O)c1[nH]c(=O)[nH]c(=O)c1F)C(C)C)C(=O)N[C@@H](Cc1ccccc1)[C@@H](O)C(=O)Nc1cccc(-c2nsc(=O)[nH]2)c1 : 99

Kindly review the next compound as well.
Entry under test: CC(C)C[C@H](NC(=O)[C@@H](NC(=O)[C@@H](N)CNC(=O)c1[nH]c(=O)[nH]c(=O)c1F)C(C)C)C(=O)N[C@@H](Cc1ccccc1)[C@@H](O)C(=O)Nc1cccc(-c2n[nH]c(=S)n2C)c1 . Its inhibition was 99

----------
molecular target: UniProtKB P56817
Measured metric: IC50 (nM)
Answers are plain numbers, in nM.

CC(C)C[C@H](NC(=O)[C@@H](NC(=O)[C@@H](N)CNC(=O)c1[nH]c(=O)[nH]c(=O)c1F)C(C)C)C(=O)N[C@@H](Cc1ccccc1)[C@@H](O)C(=O)Nc1cccc(-c2noc(=O)[nH]2)c1 : 7.9

The recorded IC50 for CC(C)C[C@H](NC(=O)[C@@H](NC(=O)[C@@H](N)CNC(=O)c1cc(O)ccc1O)C(C)C)C(=O)N[C@@H](Cc1ccccc1)[C@@H](O)C(=O)Nc1cccc(-c2nc(=O)o[nH]2)c1 is 10

----------
For each of the compounds below, state its inhibition.
biological target: Beta-secretase 1 (Homo sapiens); assay: Inhibition of human BACE1 at 2 uM by FRET assay

Completed entries (count: 2):
CC(C)C[C@H](NC(=O)[C@@H](NC(=O)[C@@H](N)CNC(=O)c1[nH]c(=O)[nH]c(=O)c1F)C(C)C)C(=O)N[C@@H](Cc1ccccc1)[C@@H](O)C(=O)Nc1cccc(-c2noc(=S)[nH]2)c1 : > 99%
CC(C)C[C@H](NC(=O)[C@@H](NC(=O)[C@@H](N)CNC(=O)c1nn[nH]n1)C(C)C)C(=O)N[C@@H](Cc1ccccc1)[C@@H](O)C(=O)Nc1cccc(-c2nn[nH]n2)c1 : > 99%

Now consider the entry below.
For reference, reported inhibition for CC(C)C[C@H](NC(=O)[C@@H](NC(=O)[C@@H](N)CNC(=O)c1[nH]c(=O)[nH]c(=O)c1F)C(C)C)C(=O)N[C@@H](Cc1ccccc1)[C@@H](O)C(=O)Nc1cccc(-c2noc(=O)[nH]2)c1 stands at > 99%

----------
Could you please report measured inhibition for the items listed next?
biological target: Beta-secretase 1 (Homo sapiens); test: Inhibition of human BACE1 at 0.2 uM by FRET assay
Please state the number and follow it with the unit.

CC(C)C[C@H](NC(=O)[C@@H](NC(=O)[C@@H](N)CNC(=O)c1cc(O)ccc1O)C(C)C)C(=O)N[C@@H](Cc1ccccc1)[C@@H](O)C(=O)Nc1cccc(-c2nsc(=O)[nH]2)c1 : 92%
CC(C)C[C@H](NC(=O)[C@@H](NC(=O)[C@@H](N)CNC(=O)c1[nH]c(=O)[nH]c(=O)c1F)C(C)C)C(=O)N[C@@H](Cc1ccccc1)[C@@H](O)C(=O)Nc1cccc(-c2n[nH]c(=S)n2C)c1 : 92%
CC(C)C[C@H](NC(=O)[C@@H](NC(=O)[C@@H](N)CNC(=O)c1cc(O)ccc1O)C(C)C)C(=O)N[C@@H](Cc1ccccc1)[C@@H](O)C(=O)Nc1cccc(-c2n[nH]c(=S)o2)c1 : 89%

Field: next molecule
Noted for CC(C)C[C@H](NC(=O)[C@@H](NC(=O)[C@@H](N)CNC(=O)c1cc(O)ccc1O)C(C)C)C(=O)N[C@@H](Cc1ccccc1)[C@@H](O)C(=O)Nc1cccc(-c2noc(=O)[nH]2)c1 : its inhibition reads 92%
